Test system: Clostridium difficile
experiment-description: growth AUC relative to DMSO control (median of replicates) (fraction); higher = more growth (less inhibition), active = hit call of the paper
measurement-context: 20 µM; 24 h
quantity-measured: growth AUC

1. C1CCC(NC2CCCCC2)CC1.O=NO = 1.01
2. Oc1ccc(Cc2ccc(O)cc2)cc1 = 1.02
3. CNc1cnn(-c2cccc(C(F)(F)F)c2)c(=O)c1Cl = 0.937
4. CNC(=O)Oc1cccc2c1OC(C)(C)C2=O = 1.01
5. CC(C)N(C(=O)CCl)c1ccccc1 = 0.965
6. O=[N+]([O-])c1c(Cl)c(Cl)cc(Cl)c1Cl = 1.02
7. CC1(C)CC/C(=C\c2ccc(Cl)cc2)C1(O)Cn1cncn1 (stereo unspecified) = 0.984
8. Cc1cc(C)nc(NC(=O)NS(=O)(=O)c2ccccc2C(=O)OC2COC2)n1 = 1.05
9. CC1(C)C(/C=C(\Cl)c2ccc(Cl)cc2)C1C(=O)OC(C#N)c1ccc(F)c(Oc2ccccc2)c1 (stereo unspecified) = 1.09
10. O=C1CCc2cccc3c2N1CC3 = 1.03
11. CCNC(=O)NC(=O)/C(C#N)=N/OC = 0.965

====

Test system: Parabacteroides distasonis
experiment-description: growth AUC relative to DMSO control (median of replicates) (fraction); higher = more growth (less inhibition), active = hit call of the paper
measurement-context: 20 µM; 24 h
quantity-measured: growth AUC

1) O=C(O)CCCOc1ccc(Cl)cc1Cl = 0.919
2) O=C(NC(=O)c1c(F)cccc1F)Nc1cc(Cl)c(OC(F)(F)C(F)C(F)(F)F)cc1Cl (stereo not drawn) = 0.964
3) COC(=O)Nc1cccc(OC(=O)Nc2cccc(C)c2)c1 = 0.976
4) [Cl][Sn]([c]1ccccc1)([c]1ccccc1)[c]1ccccc1 = 0.048
5) ClC1=C(Cl)C2(Cl)C(CBr)CC1(Cl)C2(Cl)Cl (stereo not drawn) = 0.973
6) CNC(=O)Oc1cccc2c1OC(C)(C)C2O (stereo not drawn) = 0.88
7) COCc1c(F)c(F)c(COC(=O)C2C(C=C(C)C)C2(C)C)c(F)c1F (stereo not drawn) = 1.03
8) CCCCC(CC)COC(=O)c1ccccc1C(=O)OCC(CC)CCCC (stereo not drawn) = 0.985
9) Clc1ccc(C2(Cn3cncn3)OCCO2)c(Cl)c1 = 1.01
10) CCCN(CC1CC1)c1c([N+](=O)[O-])cc(C(F)(F)F)cc1[N+](=O)[O-] = 1.03
11) CSc1nc(N=[N+]=[N-])nc(NC(C)C)n1 = 1.02
12) C=C(C)[C@H]1Cc2c(ccc3c2O[C@@H]2COc4cc(OC)c(OC)cc4[C@@H]2C3=O)O1 = 0.935
13) CCOP(=S)(OCC)Oc1cc(-c2ccccc2)on1 = 0.854
14) CCC(C)(CC)c1cc(NC(=O)c2c(OC)cccc2OC)on1 = 1
15) Oc1cc(Cl)c(Cl)cc1Cl = 0.962
16) CO/C=C(/C(=O)OC)c1ccccc1Oc1cc(Oc2ccccc2C#N)ncn1 = 0.9
17) COP(=S)(OC)Oc1ccc([N+](=O)[O-])cc1 = 0.93
18) CCOP(=S)(Oc1cnc(C(C)(C)C)nc1)OC(C)C (stereo not drawn) = 1.03
19) CC(C)=CC1C(C(=O)OCc2cccc(Oc3ccccc3)c2)C1(C)C (mixture of isomers) = 0.924
20) CNC(=O)Oc1ccccc1OC(C)C = 1.01
21) Cc1nc(N(C)C=O)nc(OC(=O)N(C)C)c1C = 1.04
22) CC(Oc1ccc(Cl)cc1Cl)C(=O)O (stereo not drawn) = 0.857
23) O=P(OCCCl)(OCCCl)OCCCl = 0.989

====

Tested on: Streptococcus salivarius
experiment-description: growth AUC relative to DMSO control (median of replicates) (fraction); higher = more growth (less inhibition), active = hit call of the paper
measurement-context: 20 µM; 24 h
quantity-measured: growth AUC

1) COc1cc(OC)n2nc(S(=O)(=O)Nc3c(Cl)ccc(C)c3Cl)nc2n1 = 0.954
2) CN(C)S(=O)(=O)N(SC(F)(Cl)Cl)c1ccccc1 = 0.998
3) CCCCOC(=O)N(C)SN(C)C(=O)Oc1cccc2c1OC(C)(C)C2 = 1.02
4) Nc1c([N+](=O)[O-])ccc(Oc2ccccc2)c1Cl = 0.929
5) CCc1cccc(C)c1N(C(=O)CCl)[C@@H](C)COC = 1.02
6) N#Cc1cc(Br)c(O)c(Br)c1 = 0.959
7) c1cc2c3c(cccc3c1)CC2 = 1.01
8) CCN(CC)c1nc(C)cc(OP(=S)(OC)OC)n1 = 0.975
9) Nc1cnn(-c2ccccc2)c(=O)c1Cl = 1.1
10) CS(=O)(=O)c1cc(C(F)(F)F)ccc1C(=O)c1cnoc1C1CC1 = 1.01
11) COc1nc(NC(C)C)nc(NC(C)C)n1 = 1.05
12) CCc1ccc(C(=O)NN(C(=O)c2cc(C)cc(C)c2)C(C)(C)C)cc1 = 0.952
13) O.[Br-].[Br-].c1cc[n+]2c(c1)-c1cccc[n+]1CC2 = 1.01
14) CC(C)(C)C(O)(CCc1ccc(Cl)cc1)Cn1cncn1 (centres undefined) = 1.01
15) C=CCN=C=S = 0.994
16) Cc1cc(C2CC2)nc(Nc2ccccc2)n1 = 1.03
17) CC(C)OC(=O)Nc1cccc(Cl)c1 = 0.981
18) O=C(NC(=O)c1c(F)cccc1F)Nc1ccc(OC(F)(F)C(F)OC(F)(F)F)c(Cl)c1 (centres undefined) = 1.01
19) CC/C(=N\OC/C=C/Cl)C1=C(O)CC(C2CCOCC2)CC1=O (centres undefined) = 0.994
20) O=c1oc2ccccc2c(O)c1C(CC(O)c1ccc(-c2ccc(Br)cc2)cc1)c1ccccc1 (centres undefined) = 0.553
21) Oc1ccccc1Cl = 1.01
22) COP(=S)(NC(C)C)Oc1ccc(C)cc1[N+](=O)[O-] (centres undefined) = 1.02
23) CC1CCCCC1NC(=O)Nc1ccccc1 (mixture of isomers) = 1.02
24) CCOP(=O)(OCC)OCC = 0.994

====

Tested on: Lactobacillus gasseri
experiment-description: growth AUC relative to DMSO control (median of replicates) (fraction); higher = more growth (less inhibition), active = hit call of the paper
measurement-context: 20 µM; 24 h
quantity-measured: growth AUC

1. CCN(CC)C(=O)SCc1ccc(Cl)cc1 = 1.08
2. CN(C)C(=S)[S-].CN(C)C(=S)[S-].[Zn+2] = 0.976
3. CC[C@H]1CCCC(O[C@H]2CC[C@H](N(C)C)[C@@H](C)O2)[C@@H](C)C(=O)C2=C[C@@H]3[C@@H](C=C(C)[C@@H]4C[C@@H](O[C@@H]5O[C@@H](C)[C@H](OC)[C@@H](OC)[C@H]5OC)C[C@@H]34)[C@@H]2CC(=O)O1.CC[C@H]1CCCC(O[C@H]2CC[C@H](N(C)C)[C@@H](C)O2)[C@@H](C)C(=O)C2=C[C@@H]3[C@@H](C=C[C@@H]4C[C@@H](O[C@@H]5O[C@@H](C)[C@H](OC)[C@@H](OC)[C@H]5OC)C[C@@H]34)[C@@H]2CC(=O)O1 (some centres undefined) = 0.879
4. c1cc2c3c(cccc3c1)CC2 = 1.05

====

System: Collinsella aerofaciens
experiment-description: growth AUC relative to DMSO control (median of replicates) (fraction); higher = more growth (less inhibition), active = hit call of the paper
measurement-context: 20 µM; 24 h
growth AUC values by entry
quantity-measured: growth AUC

1) Clc1ccccc1Cl = 0.975
2) CCOP(=S)(OCC)SCS(=O)(=O)C(C)(C)C = 1.02
3) COP(=O)(OC)Oc1ccc([N+](=O)[O-])cc1 = 0.948
4) CC(C)(C)[C@@H](O)[C@H](Oc1ccc(Cl)cc1)n1cncn1 = 0.988
5) COc1cc(OC)nc(NC(=O)NS(=O)(=O)c2cc(NC=O)ccc2C(=O)N(C)C)n1 = 1.05
6) CNC(=O)Oc1cccc2c1OC(C)(C)O2 = 1
7) COc1ncc(F)c2nc(S(=O)(=O)Nc3c(F)cccc3F)nn12 = 1.01
8) CC(C)=NOCCOC(=O)[C@@H](C)Oc1ccc(Oc2cnc3cc(Cl)ccc3n2)cc1 = 0.954
9) CCCSC(=O)N(CCC)CCC = 0.967
10) Cc1ccc(-c2c(Cl)nc(C#N)n2S(=O)(=O)N(C)C)cc1 = 1.02
11) CCOC(=O)C(C)OC(=O)c1cc(Oc2ccc(C(F)(F)F)cc2Cl)ccc1[N+](=O)[O-] (stereo unspecified) = 0.857

====

Test system: Bacteroides uniformis
experiment-description: growth AUC relative to DMSO control (median of replicates) (fraction); higher = more growth (less inhibition), active = hit call of the paper
measurement-context: 20 µM; 24 h
Everything with growth AUC lower than 1 is false (0); everything else, including exactly 1, is true (1).

1) CNC(=O)Oc1cc(C)c(S(C)(=O)=O)c(C)c1 = false (0)
2) CC1(C)C(C=C(Cl)Cl)C1C(=O)OCc1cccc(Oc2ccccc2)c1 (mixture of isomers) = true (1)
3) Clc1cc(Cl)nc(-c2ccccc2)n1 = false (0)

Origin of measurements: the supplement of paper PMC12669032
